B1: MFF (parent)
chain: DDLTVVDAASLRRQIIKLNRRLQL

# Variants of: B1
# protocol-details: protein stability index of a GFP-peptide fusion (GPS, HEK-293T) (PSI 1-6); higher = more stable;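 also: lentivirally expressed fusions sorted by FACS into six bins by GFP to DsRed ratio, PSI derived from sequencing read proportions per bin multiplied by bin number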
# settings: c terminus: a fixed tail appended
Task for the reader: assign each of the following variants its reported protein stability index.
# answer = number (no unit)

For the variant shown here, L3S , give the reported protein stability index. 2.57

Return reported protein stability index; argument: K17I 1.85

Field request: protein stability index | item: D2H 2.02

Fill in: protein stability index of R13D is ___ 2.27

Could you share which protein stability index value was measured for R20L ? 2.37

Endpoint output: protein stability index of D1H . Value? 1.84

Given R13P , state its recorded protein stability index. 2.56

For K17S , what is its reported protein stability index? 2.76

# protein stability index lookup, item Q14D 2.16

Would you kindly share the measured protein stability index for A9F ? 1.58

Item under review: T4M . Reported protein stability index? 2.24

Reported protein stability index for R12I : what is it? 1.23

// returns reported protein stability index for input S10T 1.61

Which protein stability index is listed for I15S ? 3.74

Fill blank: measured protein stability index of the variant T4E is ____. 2.21

Param item = V5N ; retrieve measured protein stability index. 2.61

Name the reported protein stability index value associated with the variant D1S 2.28

Which protein stability index value is on record for L24S ? 2.42

I am curious: what protein stability index value has been reported for D1I ? 2.32

Look at this variant and give its reported protein stability index. T4I 2.2

What value of protein stability index has been reported for the following variant? A9N 2.42

May I ask what protein stability index has been recorded for N19I ? 2.02

Need protein stability index of A8F , thanks. 2.35

Requested read-out: protein stability index. Entry: R20T 2.76

Endpoint output: protein stability index of V5Y . Value? 2.17

Would you mind telling me what protein stability index value was observed for L11W ? 2.84

// returns reported protein stability index for input R12S 2.1

Given the variant R13N , what is its reported protein stability index? 2.21

Fill blank: measured protein stability index of the variant D1A is ____. 2.08

Reported protein stability index for R21V : what is it? 1.79

Value lookup for protein stability index; key = T4V 1.96

Form field: reported protein stability index of D1F 2.42

What measured protein stability index goes with T4C ? 1.86

Would you kindly share the measured protein stability index for D2A ? 2.37

Could you share which protein stability index value was measured for V6N ? 2.4

What value of protein stability index has been reported for the following variant? R12Q 2.13

For I15V , what is its reported protein stability index? 3.05

Looking for the measured protein stability index of L24R , can you help? 2.74

I'd like to know its protein stability index. The variant in question is N19E 3

Record request: protein stability index value, item R12C 1.95

Given L3Q , state its recorded protein stability index. 2.45

State the recorded protein stability index for this entry: I15N 2.71

Would you mind telling me what protein stability index value was observed for R12W ? 1.92

Field request: protein stability index | item: L18P 3.42

What does the record list as protein stability index for D7K ? 1.89

Which protein stability index value is on record for Q14F ? 1.51

From: the supplement of paper PMC10567573
